- Test system: MS2 coat protein
- protocol: apparent KD of MS2 coat protein; designed switch direction (-1 OFF switch, 1 ON switch): 1; higher = weaker reporter binding
- assay-context: input ligand: none
observation-type: apparent KD of MS2 coat protein (nM)
I only need the number, in nM, no unit after it.

// known answers, use as guide
CGUACACAUGAGGAUCACCCAUGUCAGAUUUGGUCAGGAUAUGGGCGGCAUCCGCUAUUGCCAGAAGGGACUGUUG [JR_SS001_Sub703] (Eterna round: R96, puzzle: Same State 1); 64.8
GGUCCAUCAUGAGGAUAUGGCACCUUAUUGGUGCCAGAAGGCAUGUCUAUGACAUGAGGAUCACCCAUGUAAAUAAAUUGGACC [Eli NG1ss - 94] (Eterna round: R96, puzzle: Same State NG 1); 232
AGGCUCAGACGAGGAUAUGGUCAUGGCGCUUCGGCGCAUACAUGAGGAUCACCCAUGUAGGGUGAUCAGAAGGCGUCUGAGCCA [SSNG2/9-A1] (Eterna round: R96, puzzle: Same State NG 2); 365
AUUAUUAAUGCAGGAUAUGAAUAACAUGAGGAUCACCCAUGUGGUGUUGUGAGUAAGGAGAGAGAUCAGAAGGGCAUUUUUUUU [JMF's solution 4] (Eterna round: R96, puzzle: Same State NG 2); 258
UGGUACAUGGGAGGAUAUGGAGUGAAGACAUGAGGAUCACCCAUGUUAUAAAAGCCGAGAGGCAACUAGAAGGCCCAUGUACCU [JL SSNG1 3.93] (Eterna round: R96, puzzle: Same State NG 2); 55

Given item CGCGCUCCGGUAGGAUAUGAGGUGCCGUAGGGACCCGCCUACGGACAUGAGGAUCACCCAUGUCCUCAGAAGGACCGGGCGUGA [Soenonorma] (Eterna round: R96, puzzle: Same State NG 2) , the value recorded as its apparent KD of MS2 coat protein is 35.5

Given item GUUACAUGAGGAUCACCCAUGUAUGUGUGGGAGUAAGUGUCUUAGGAUAUCUGUUAUUAAAUUUAAGAGAAGGAAGAUUGUUGU [JMF's solution 36] (Eterna round: R96, puzzle: Same State NG 3) , the value recorded as its apparent KD of MS2 coat protein is 92.7

Given item UUUAGAUUCAGAGGAUAUUGAUGUUGUAUUUUACAAGAAGGCUGAUUGGUUUGAAAUGUUAUUAAACAUGAGGAUCACCCAUGU [JR_SSNG1_Sub012] (Eterna round: R96, puzzle: Same State NG 1) , the value recorded as its apparent KD of MS2 coat protein is 44.5

Given item GGAGCCGGCCUAGGAUAUUUCAUAUAAAAACAUGAGGAUCACCCAUGUAGGCCAGAAGGCCUUGGGAAGAAGGAGGUCGGCUCC [Loop Effect - U25] (Eterna round: R96, puzzle: Same State NG 2) , the value recorded as its apparent KD of MS2 coat protein is 30.1
